Reference source: PubChem BioAssay AID1963979

Tested on: 361931-004-R-J1-PDC multicell spheroid viability
Experimental protocol: Anticancer human tumor 361931-004-R-J1-PDC patient-derived colon adenocarcinoma cell line growth inhibition [PI3K]
Experimental setup: second compound 0.00316 µM; first compound 0.001 µM; active compounds read low
Property: viability, T/C

// known answers, use as guide
{"columns": ["Compound", "viability, T/C"],
 "data": [
  ["CC(=O)c1c(C)c2cnc(Nc3ccc(N4CCNCC4)cn3)nc2n(C2CCCC2)c1=O + CC(Nc1ccc2c(c1)OCCn1cc(N3C(=O)OCC3C(F)F)nc1-2)C(N)=O", "106%"],
  ["Cn1ncnc1[C@H]1c2n[nH]c(=O)c3cc(F)cc(c23)N[C@@H]1c1ccc(F)cc1 + CC(Nc1ccc2c(c1)OCCn1cc(N3C(=O)OCC3C(F)F)nc1-2)C(N)=O", "96.1%"],
  ["CC(=O)c1c(C)c2cnc(Nc3ccc(N4CCNCC4)cn3)nc2n(C2CCCC2)c1=O + COc1c(OCCCN2CCOCC2)ccc2c3n(c(=NC(=O)c4cnc(N)nc4)nc12)CCN3", "98.4%"]
]}

Identify the measured viability, T/C of CC(C)n1nc(-c2ccc3oc(N)nc3c2)c2c(N)ncnc21 + CC(Nc1ccc2c(c1)OCCn1cc(N3C(=O)OCC3C(F)F)nc1-2)C(N)=O for 361931-004-R-J1-PDC multicell spheroid viability.
106%

For the record Cn1ncnc1[C@H]1c2n[nH]c(=O)c3cc(F)cc(c23)N[C@@H]1c1ccc(F)cc1 + COc1c(OCCCN2CCOCC2)ccc2c3n(c(=NC(=O)c4cnc(N)nc4)nc12)CCN3 , what value of viability, T/C is listed for 361931-004-R-J1-PDC multicell spheroid viability?
106%

Give 361931-004-R-J1-PDC multicell spheroid viability viability, T/C for CC(C)n1nc(-c2ccc3oc(N)nc3c2)c2c(N)ncnc21 + COc1c(OCCCN2CCOCC2)ccc2c3n(c(=NC(=O)c4cnc(N)nc4)nc12)CCN3
108%

---

Tested on: 361931-004-R-J1-PDC multicell spheroid viability
Experimental protocol: Anticancer human tumor 361931-004-R-J1-PDC cell line growth inhibition [PI3K]; active means viability on the fitted dose curve at most 10% of control; inactive means the rest;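 further: spheroids exposed to agents for seven days before readout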
Experimental setup: second compound 1 µM; first compound 1 µM
Source text: Combinatorial screen of targeted agents with the PI3K inhibitors inavolisib, alpelisib, duvelisib, and copanlisib in multi-cell type tumor spheroids A high-throughput screen of multi-cell type tumor spheroids was designed to identify active combinations of targeted small molecules and PI3K pathway inhibitors. […] Compounds. […] If the clinical Cmax for an agent had not been determined, the highest concentration tested was 10 microM. […]
# valid calls are active, inactive; nothing else

Worked examples follow.
{"columns": ["Molecule", "Qualitative label"],
 "data": [
  ["CCN1CCN(Cc2ccc(Nc3ncc(F)c(-c4cc(F)c5nc(C)n(C(C)C)c5c4)n3)nc2)CC1 + COc1c(OCCCN2CCOCC2)ccc2c3n(c(=NC(=O)c4cnc(N)nc4)nc12)CCN3", "inactive"],
  ["C[C@@H](NC(=O)c1ncnc(N)c1Cl)c1ncc(C(=O)Nc2cc(C(F)(F)F)c(Cl)cn2)s1 + CC(Nc1ccc2c(c1)OCCn1cc(N3C(=O)OCC3C(F)F)nc1-2)C(N)=O", "inactive"],
  ["C=CC(=O)N1CCN(c2nc(=O)n(-c3c(C)ccnc3C(C)C)c3nc(-c4c(O)cccc4F)c(F)cc23)C(C)C1 (stereo unspecified) + Cc1nc(NC(=O)N2CCCC2C(N)=O)sc1-c1ccnc(C(C)(C)C(F)(F)F)c1", "inactive"],
  ["CC(Cn1ccc(-c2ccc(C#N)c(Cl)c2)n1)NC(=O)c1cc(C(C)O)[nH]n1 (stereo unspecified) + CC(Nc1ncnc2nc[nH]c12)c1cc2cccc(Cl)c2c(=O)n1-c1ccccc1", "inactive"],
  ["Cn1nccc1Nc1nccc(-c2ccn(C(CO)c3ccc(Cl)c(F)c3)c(=O)c2)n1 (stereo unspecified) + COc1c(OCCCN2CCOCC2)ccc2c3n(c(=NC(=O)c4cnc(N)nc4)nc12)CCN3", "active"],
  ["C#Cc1c(F)ccc2cc(O)cc(-c3ncc4c(N5CC6CCC(C5)N6)nc(OCC56CCCN5CC(F)C6)nc4c3F)c12 (stereo unspecified) + Cc1nc(NC(=O)N2CCCC2C(N)=O)sc1-c1ccnc(C(C)(C)C(F)(F)F)c1", "inactive"],
  ["C=CC(=O)N1CCN(c2nc(=O)n(-c3c(C)ccnc3C(C)C)c3nc(-c4c(O)cccc4F)c(F)cc23)C(C)C1 (stereo unspecified) + CC(Nc1ccc2c(c1)OCCn1cc(N3C(=O)OCC3C(F)F)nc1-2)C(N)=O", "inactive"],
  ["CCN1CCN(Cc2ccc(Nc3ncc(F)c(-c4cc(F)c5nc(C)n(C(C)C)c5c4)n3)nc2)CC1 + CC(Nc1ccc2c(c1)OCCn1cc(N3C(=O)OCC3C(F)F)nc1-2)C(N)=O", "inactive"],
  ["CNC(=O)c1ccc(N2C(=S)N(c3ccc(C#N)c(C(F)(F)F)c3)C(=O)C2(C)C)cc1F + Cc1nc(NC(=O)N2CCCC2C(N)=O)sc1-c1ccnc(C(C)(C)C(F)(F)F)c1", "inactive"],
  ["Cn1nccc1Nc1nccc(-c2ccn(C(CO)c3ccc(Cl)c(F)c3)c(=O)c2)n1 (stereo unspecified) + CC(Nc1ccc2c(c1)OCCn1cc(N3C(=O)OCC3C(F)F)nc1-2)C(N)=O", "inactive"]
]}

We now examine a further molecule.
Outcome? C[C@@H](NC(=O)c1ncnc(N)c1Cl)c1ncc(C(=O)Nc2cc(C(F)(F)F)c(Cl)cn2)s1 + COc1c(OCCCN2CCOCC2)ccc2c3n(c(=NC(=O)c4cnc(N)nc4)nc12)CCN3
inactive
